Consider the following sequences and their measured apparent Kd readings.
Tested on: MS2 coat protein
EXPERIMENT NOTES: apparent Kd, MS2 coat protein; higher = weaker binding; RNA-MaP array; FMN 200 µM where present
MEASUREMENT CONDITIONS: ligand present: flavin mononucleotide; designed as: OFF switch for flavin mononucleotide
# number then unit; no other words

See these solved cases before continuing.
GAUUAACAUGAGGAUCACCCAUGUGAGGAUAUGGACUGGCUCACUUUUCGAUUCCCGUCUAGAAGGCGCAUCUU | 55.6 nM
CGCUAAGAGAACGAUACGAAUAGACAUGAGGAUCACCCAUGUAGAAGGACAACGGAAUAAACGUUGUAGGAUAUACAUUUAGCG | 45.3 nM
GUGCGGUGAGGAUAUACGUAGGUGAAAAUCUGUGUGUUCCUACAUGAGGAUCACCCAUGUAGAAGGCAUGGCAC | 45.3 nM

Please look up its apparent Kd: GAGCUCAAUGAGAAGGGUUACAUGAGGAUCACCCAUGUCGACCUUGGCGUAACAGGAUAUCAUCGGGCUCAGUGCGUUGACCCA
108 nM

Requested read-out: apparent Kd. Entry: GUGUACAGAGGAUAUGCACGAGUAGUUACGAAAGUAACUACACAUGAGGAUCACCCAUGUAGAAGGCUGUACAC
16.9 nM

// lookup apparent Kd for UUGAACAUAGGAUAUAGUUGUUUGUACAUGAGGAUCACCCAUGUUAUGUAUGUUUUGUUUCUAGAAGGAUGUUGAU
32.3 nM

Would you kindly share the measured apparent Kd for GGUACUCAAAGAGUACCAAUACGAACAUGAGGAUCACCCAUGUAGGAUAUGCUAAAACCGGAGUAGCAGAAGGACAUGUGCCUA ?
66.6 nM

Would you mind telling me what apparent Kd value was observed for GGAGAUUACUCAGGAUAUCGCUAGACCGACAUGAGGAUCACCCAUGUGGGUGACGCGGUGGGCUACGAGAAGGGAGAAGUGCCC ?
11.7 nM

Dear colleague, I am looking for the recorded apparent Kd of the following sequence: UCGCUGCGAGGAUAUACAUGAGGAUCACCCAUGUGCGGGUCCGGGUUUUCGUCCAUUAGUAGAAGGCGCAGUGA
46.5 nM

If you can, please state the reported apparent Kd value of GUUGGAUGAGGAUAUCGAGGUUAGUACAUGAGGAUCACCCAUGUUAUCCAGGUGUCGGUUCGAGAAGGCAUUGGAC .
114 nM

For the sequence CUAAAUCAUGUAGGAUAUGCGUGGCGAAGCUAUGCAGAAGGACAUGAGGAUCACCCAUGUCUUUCUGUCUGCGUACAGACGGAA , what apparent Kd is on record?
135 nM

Which apparent Kd value is on record for GGUGCGUUUGUGAGGAUAUGCUGGUCCUUGGUUCGGCAGAAGGCACAUGAGGAUCACCCAUGUGGUGUCGCACC ?
51.5 nM

State the recorded apparent Kd for this entry: GGUUAUUGCAAGGAUAUGCUUUUUUUUGAUAUUGCAGAAGGUGCAACAUGAGGAUCACCCAUGUUGGAUGGGUU
162 nM

apparent Kd lookup needed for UAUAUAUAGUAAGGAUAUGUAUUAAUAUUAUAAACAGAAGGUACUGACAUGAGGAUCACCCAUGUUUUAGUGUGGGCAUGUAGA , thanks.
128 nM

Tell me the measured apparent Kd of GGUCCACAUGAGGAUCACCCAUGUCAGGAUAUACACGGCACAAUAAUAAGUGCCACCCGUAGAAGGGACGCUGG , please.
37.6 nM

Recorded apparent Kd for UGAGCCUCGUGAGGAUAUACAUGAGGAUCACCCAUGUAAUAAAGUGAACGGAGGAAGCUCCGAAUGUAGAAGGCACGAGGCUCA , please?
372 nM

What value of apparent Kd has been recorded for this entry: UGGGAUGGCUAGAAGGCUCCUUAUACUACAGGGAGAGGAUAUGGCACAUGAGGAUCACCCAUGUGUACCUGUAGGUGAUCCACA
108 nM

All figures here come from the EternaBench riboswitch data.
